This collection of values is drawn from patent US8008547B2.

assay: Standard protocol for determination of kcat and KM (continuous spectrophotometric assay, Acetyl CoA hydrolysis at 235 nm); assay type: biochemical; conditions: purified protein; about 23° C.; pH 6.8; 0.2 mM acetyl CoA; glyphosate 0.125 to 10 mM

{"molecule": "SEQ ID NO: 438: GAT polypeptide (protein, 0_4B10, GAT polypeptide) MIEVKPINAEDTYELRHKILRPNQPIEACMYESDLLRGAFHLGGFYRGKLISIASFHQAEHSDLEGQKQYQLRGMATLEGYRDQKAGSTLIKHAEEILRKRGADMLWCNARTTASGYYKKLGFSEQGEIFDTPPVGPHILMYKRLT", "Km [µM]": 680}
{"molecule": "SEQ ID NO: 325: GAT polypeptide (protein, 15_10C2, GAT polypeptide) MIEVKPINAEDTYEIRHRILRPNQPLEACKYETDLLRGAFHLGGYYRGKLVSIASFHQAEHPELEGQKQYQLRGMATLEGYREQKAGSTLIRHAEELLRKKGADLLWCNARTTASGYYKKLGFSEQGEVFDIPPTGPHILMYKKLT", "Km [µM]": 800}
{"molecule": "SEQ ID NO: 509: GAT polypeptide (protein, GAT1_24G3, GAT polypeptide) MIEVKPINAEDTYEIRHRILRPNQPLEACMYETDLLGGTFHLGGYYRGKLISIASFHQAEHSELEGQKQYQLRGMATLEGYREQKAGSTLIRHAEELLRKKGADLLWCNARTFVSGYYEKLGFSEQGEVYDIPPIGPYILMYEKLT", "Km [µM]": 3800}
